# System: A498 renal
# runDescription: NCI tumour cell line growth inhibition, 48 h
Property: GI50; scope: individual compounds
endpointLabel: GI50

>>> measuredresult("Cc1ccc(C(SCC(N)C(=O)O)(c2ccc(C)cc2)c2ccc(C)cc2)cc1 (centres undefined)")
"4.04 µM"
>>> measuredresult("Cc1cc(O)ccc1C1=NN(c2ccc(S(C)(=O)=O)cc2)C(=O)CC1")
"2.78 µM"
>>> measuredresult("O=C1NC(=O)C(=C/C=C/c2ccccc2)C(=O)N1")
"20 µM"
>>> measuredresult("C/C(=C\\CCc1ccoc1)CC/C=C(\\C)CCCN1CCOCC1")
"4.48 µM"
>>> measuredresult("Nc1nc2c(s1)CCc1c-2c(Br)n(Cc2ccccc2)c1Br")
"17.3 µM"
>>> measuredresult("O=C(CN(/C=C/C(=O)C(F)(F)F)c1ccc(Cl)cc1)c1ccccc1")
"22 µM"
>>> measuredresult("C[C@H](Nc1ncnc2nc[nH]c12)c1cc2ccc(F)cc2nc1-c1ccccn1")
"1.02 µM"
>>> measuredresult("Clc1cccc(Cl)c1C1CSc2ccccc2N=C1c1ccccc1 (centres undefined)")
"13.1 µM"
>>> measuredresult("O=C(c1ccccc1)c1ccc(Oc2ccc([N+](=O)[O-])cc2[N+](=O)[O-])cc1")
"11 µM"

* * *

Property: TGI; scope: individual compounds
# Test system: OVCAR-3 ovarian
# runDescription: NCI tumour cell line growth inhibition, 48 h
endpointLabel: TGI

>>> measuredresult("CC1(C)C(O)C[C@@H](O)[C@@]2(C)C1CC[C@]1(C)C2C[C@@H](O)[C@@H]2C([C@@]3(C)CC[C@@H](C(C)(C)O)O3)CCC21C (stereo not given in full)")
"29.4 µM"
>>> measuredresult("COc1cc2cccc(N)c2cc1OC")
"> 100 µM"
>>> measuredresult("CC(C)NC(=O)OCc1c(COC(=O)NC(C)C)c(-c2cc[n+](COC(=O)C(C)(C)C)cc2)n2c1CCC2")
"> 100 µM"
>>> measuredresult("O=C1c2ccccc2C(=O)N1CCN(CCN1C(=O)c2ccccc2C1=O)Cn1cccn1")
"> 100 µM"
>>> measuredresult("COC(=O)/C=C1/CCC(C)(C(=O)NS(=O)(=O)c2ccc(C)cc2)C1(C)C (stereo not given)")
"> 100 µM"
>>> measuredresult("CC(=O)Nc1cc(N(CCOS(C)(=O)=O)CCOS(C)(=O)=O)ccc1N=O")
"> 100 µM"
>>> measuredresult("OC1CCOc2ccccc21 (stereo not given)")
"> 100 µM"
>>> measuredresult("COc1ccc2c(c1)[n+](=O)c(C(=O)c1ccco1)c(C(F)(F)F)n2[O-]")
"11.5 µM"
>>> measuredresult("O=P1(Oc2ccccc2)N(CCCl)CCN1c1ccccc1 (stereo not given)")
"> 100 µM"
>>> measuredresult("C=CCSC1=N/C(=C\\c2cccs2)C(=O)N1CC=C")
"> 100 µM"

* * *

# Tested on: HS 578T breast
# runDescription: NCI tumour cell line growth inhibition, 48 h
endpointLabel: TGI

>>> measuredresult("Cc1ccc(-c2cc3c(SCC(=O)Nc4cc(C(F)(F)F)ccc4Cl)nccn3n2)cc1")
"> 100 µM"
>>> measuredresult("O=C(O)c1cc(/C=C/c2cc(O)ccc2O)ccc1O")
"> 10 µM"
>>> measuredresult("CN(C)CCN=C1Nc2ccccc2C(=S)N2CSCC12 (stereo unspecified)")
"> 100 µM"
>>> measuredresult("CCCCCCCCCCCCCC1=NCCN1CCO")
"6.54 µM"
>>> measuredresult("Cc1cc(O)ccc1C1=NN(c2ccc(S(C)(=O)=O)cc2)C(=O)CC1")
"> 100 µM"
>>> measuredresult("COc1ccc(C(SCC(N)C(=O)O)(c2ccccc2)c2ccccc2)cc1 (stereo unspecified)")
"3.1 µM"

* * *

# Test system: CAKI-1 renal
# runDescription: NCI tumour cell line growth inhibition, 48 h
endpointLabel: TGI (µM)

>>> measuredresult("Cl.Fc1c[c-]c(-c2ccccn2)c(F)c1.[Pt].c1ccc(P(c2ccccc2)C([PH+](c2ccccc2)c2ccccc2)[PH+](c2ccccc2)c2ccccc2)cc1")
7.41
>>> measuredresult("c1ccc(CNCCCCNCCCNCc2ccccc2)cc1")
40.3
>>> measuredresult("CCOC(=O)c1c(Cl)nc2ccccc2c1N=[N+]=[N-]")
43.4
>>> measuredresult("COc1cc(S(=O)(=O)Nc2ccc(-c3csc(N)n3)cc2)ccc1Cl")
45
>>> measuredresult("COc1ccc2cc(-c3cc4c(oc3=O)-c3ccccc3OC4O)c(=O)oc2c1 (stereo unspecified)")
29.8
>>> measuredresult("C[C@]12CC[C@H](O)C[C@H]1CC[C@@H]1[C@@H]2CC[C@]2(C)[C@@H](C3=CC(=O)OC3)[C@@H](O)C[C@]12O")
3.15
>>> measuredresult("CN(C)CCNC(=O)C(C)(C)Oc1ccc(C(=O)c2ccc(Cl)cc2)cc1Cl")
26.2
>>> measuredresult("Cc1ccc(N=Nc2ccc(O)c(CN(C)C)c2)cc1")
61.3
>>> measuredresult("O=C1C(=O)c2c(nc3ccc(Br)cn23)-c2ccccc21")
3.01

* * *

# Tested on: KM12 colon
# runDescription: NCI tumour cell line growth inhibition, 48 h
Property: GI50; scope: individual compounds
endpointLabel: GI50

>>> measuredresult("COC(=O)[C@]12CC[C@@H](C)[C@H](C)[C@@H]1C1=CC[C@@H]3[C@@]4(C)C(C=O)=C[C@@](C)(COC(C)=O)C4=CC[C@@]3(C)[C@]1(C)CC2")
"3.49 µM"
>>> measuredresult("O=C(N/N=C/c1cc(Cl)cc(Cl)c1[O-])c1ccccc1O.O=C(N/N=C/c1cc(Cl)cc(Cl)c1[O-])c1ccccc1O.[Zn+2]")
"0.956 µM"
>>> measuredresult("O=C1c2ccccc2S(=O)(=O)N1CSC(=S)N1CCCCC1")
"> 55.7 µM"
>>> measuredresult("c1cc2[nH]ncc2cc1-c1nc2ccc3[nH]ncc3c2c2c1CCCC2")
"0.563 µM"
>>> measuredresult("CC1COc2c(N3CCN(C)CC3)c(F)cc3c(=O)c(C(=O)O)cn1c23 (configuration not stated)")
"> 100 µM"
>>> measuredresult("COc1ccc2c(c1)[n+](=O)c(C(=O)c1ccco1)c(C(F)(F)F)n2[O-]")
"4.48 µM"
>>> measuredresult("C/C(=C\\CCc1ccoc1)CC/C=C(\\C)CCCN1CCOCC1")
"4.11 µM"

* * *

# Tested on: SR leukemia
# runDescription: NCI tumour cell line growth inhibition, 48 h
Property: TGI; scope: individual compounds
endpointLabel: TGI

>>> measuredresult("CN(Cc1cc(Br)cc(Br)c1O)Cc1cc(Br)cc(Br)c1O")
"28.3 µM"
>>> measuredresult("Cc1ncc2c(=O)c3c(oc2n1)c1ccccc1n3Cc1ccccc1")
"> 100 µM"
>>> measuredresult("COc1c(C(=O)c2ccc([N+](=O)[O-])cc2)cc(C(C)(C)C)cc1C(C)(C)C")
"64.1 µM"
>>> measuredresult("COc1ccc(C(CC(=O)C(C)(C)CN2CCCCC2)SCCS(=O)(=O)O)cc1 (stereo not given)")
"49.7 µM"
>>> measuredresult("CC(=O)OC/C=C\\Cn1nc(Br)c(=O)[nH]c1=O")
"15.6 µM"
>>> measuredresult("CCOC(=O)[C@@]12C[C@](/C=C/OC)(O[Si](C)(C)C)[C@@]13c1cc(OC)c(OC)cc1CCN3C(=O)C2O (stereo not given in full)")
"> 100 µM"
>>> measuredresult("C1=C(c2ccccc2)Nc2nnnn2C1c1ccccc1 (stereo not given)")
"51.3 µM"
>>> measuredresult("COC1C=COC2(C)Oc3c(C)c(O)c4c(O)c(c(/C=N/N5CCN(N)CC5)c(O)c4c3C2=O)NC(=O)C(C)=CC=CC(C)C(O)C(C)C(O)C(C)C(OC(C)=O)C1C (stereo not given)")
"> 100 µM"
>>> measuredresult("Cl.Fc1c[c-]c(-c2ccccn2)c(F)c1.[Pt].c1ccc(P(c2ccccc2)C([PH+](c2ccccc2)c2ccccc2)[PH+](c2ccccc2)c2ccccc2)cc1")
"> 100 µM"
>>> measuredresult("CC(SC(=S)N1CCOCC1)C(=O)Nc1nnc(-c2ccccc2)o1 (stereo not given)")
"> 100 µM"
>>> measuredresult("CCN(CC)CCNC(=O)c1cc2cc(NC(=O)c3cc4cc(NC(=O)c5cc6cc(N)ccc6[nH]5)ccc4[nH]3)ccc2[nH]1")
"> 100 µM"
>>> measuredresult("COc1cc(S(=O)(=O)Nc2ccc(-c3csc(N)n3)cc2)ccc1Cl")
"48.4 µM"
>>> measuredresult("CC(C)(C)OC(=O)NCCc1cccc2c1oc1c(CCC(=O)O)cccc12")
"> 100 µM"
>>> measuredresult("CCOC(=O)c1cnc2n(c1=N)[C@H]1CCCC[C@@H]1N2")
"> 100 µM"
>>> measuredresult("CN(N)c1cc(=O)[nH]c(=O)[nH]1")
"> 100 µM"
>>> measuredresult("NC(N)=N/N=C/c1c(-c2cc(Cl)sc2Cl)nc2sccn12")
"2.68 µM"
>>> measuredresult("CC(=O)CSc1c(-c2ccccc2)c(=O)n(-c2ccccc2)c(=S)n1-c1ccccc1")
"> 100 µM"
>>> measuredresult("O=C(c1ccccc1)[C@H]1Nc2ccc(Cl)cc2C2c3ccccc3CC21 (stereo not given in full)")
"> 100 µM"
>>> measuredresult("O=S(=O)(O)c1ccc(N=Nc2c(O)ccc3cc(Br)ccc23)cc1")
"> 100 µM"
>>> measuredresult("C=CC(C1=CC(=O)C(OC)=CC1=O)c1ccccc1 (stereo not given)")
"26.5 µM"
